# Test summary: Turbidometric solubility determination
# Type: physicochemical
# Stated conditions: PBS with 1% DMSO, aqueous buffer, kinetic from dmso stock, room temperature, OD620, read-out: Max Solub
Metric: log10(solubility at 2 h) (log10 of the value in µM)
Heads up, the numbers here are log10 of solubility at 2 h in µM units.

O=C1CCCN1Cc1ccc(C2CCN(c3ccn[nH]3)CC2)cc1F = 2.62
COc1ccc(C2CCN(c3ccn[nH]3)CC2)cc1 = 2.03
c1ccc(SC2CCN(c3cn[nH]c3)CC2)cc1 = 1.98

Please go through the list and note log10(solubility at 2 h) for each compound.
1. COc1ccc(SC2CCN(c3cn[nH]c3)CC2)cc1
2. COc1cccc(C2CCN(c3ccn[nH]3)CC2)c1
3. COc1ccc(C2CCN(c3cn[nH]c3)CC2)cc1
4. Cc1ccc(C2CCN(c3ccn[nH]3)CC2)cc1
5. COc1ccc(C2CCN(c3cn[nH]c3)CC2)c(Cl)c1
6. O=C1CCCN1c1ccc(CC2CCN(c3cn[nH]c3)CC2)cc1

Data returned:
[1.95, 2.69, 1.54, 2.22, 1.27, 2.33]

Batch request: log10(solubility at 2 h) for each of the following compounds.
1. COCc1ccc(C2CCN(c3cn[nH]c3)CC2)cc1
2. Cc1ccc(C2CCN(c3cn[nH]c3)CC2)cc1
3. COCc1ccc(C2CCN(c3ccn[nH]3)CC2)cc1
4. Cc1ccc(CC2CCN(c3cn[nH]c3)CC2)cc1
5. COc1cc(C2CCN(c3cn[nH]c3)CC2)ccc1F
6. Cl.O=C1CCCN1c1ccc(C2CCN(c3cn[nH]c3)CC2)cc1

Data returned:
2.56
1.93
2.37
1.85
2.10
1.80

---

# Assay system: rCYP4F2 (Homo sapiens)
# Test summary: Inhibition of 20-HETE formation at 250 or 500 nM in rCYP4F2 incubations
# Format: biochemical
# Stated conditions: 500 nM compound; rCYP4F2 25 pmol/mL; read-out: rCYP4F2 % inh. @ 500 nM
Provide the reported inhibition at 0.5 µM of each item.
Numbers only, in %.

In the examples that follow, each entry is paired with its recorded inhibition at 0.5 µM.
Clc1cccc(C2CCN(c3cn[nH]c3)CC2)c1 = 81.3
COc1ccc(C2CCN(c3cn[nH]c3)CC2)c(Cl)c1 = 35
Cc1cccc(C2CCN(c3ccn[nH]3)CC2)c1 = 69
Cc1cccc(C2CCN(c3cn[nH]c3)CC2)c1 = 86
O=C1CCCN1Cc1ccc(C2CCN(c3ccn[nH]3)CC2)cc1F = 84.1

For each of the compounds below, note its inhibition at 0.5 µM.
1. COc1ccccc1C1CCN(c2cn[nH]c2)CC1
2. Clc1ccc(C2CCN(c3cn[nH]c3)CC2)cc1
3. COc1ccc(C2CCN(c3ccn[nH]3)CC2)c(Cl)c1
4. O=S(=O)(c1ccc(C2CCN(c3ccn[nH]3)CC2)cc1)N1CCCC1

Data returned:
0
73.8
58
16.4

Short answer on rCYP4F2 (Homo sapiens) for `Cc1cccc(CC2CCN(c3cn[nH]c3)CC2)c1` , inhibition at 0.5 µM: 60.3

---

# System: 20-HETE formation (CYP4) in HLM
# Test summary: Inhibition of 20-HETE formation at 250 or 500 nM in HLM microsomal incubations
# Format: biochemical, human
# Stated conditions: 500 nM compound; HLM 300 μg/ml, AA 100 μM, 20 min
Metric: HLM % inh. @ 500 nM (%)
Answers are plain numbers, in %.

Example cases with answers are listed next.
O=C1CCCN1Cc1ccc(C2CCN(c3cn[nH]c3)CC2)cc1F [Compound 109] = 90.30
COc1ccc(C2CCN(c3ccn[nH]3)CC2)c(Cl)c1 [Compound 66] = 36
COc1cc(CC2CCN(c3ccn[nH]3)CC2)ccn1 [Compound 99] = 17.70
COc1ccc(N2CCN(c3cn[nH]c3)CC2)cc1 [Compound 6] = 31.80
Cc1cccc(C2CCN(c3cn[nH]c3)CC2)c1 [Compound 34] = 80.00

For every item in the list below, what is its measured HLM % inh. @ 500 nM?
1. COc1cc(F)cc(C2CCN(c3cn[nH]c3)CC2)c1 [Compound 72]
2. COC(=O)c1ccc(C2CCN(c3ccn[nH]3)CC2)cc1 [Compound 11]
3. O=C1CCCN1Cc1ccc(C2CCN(c3ccn[nH]3)CC2)cc1F [Compound 110]
4. c1ccc(CC2CCN(c3cn[nH]c3)CC2)cc1 [Compound 3, 4-Benzyl-1-(1H-pyrazol-4-yl)piperidine]

Data returned:
1: 77; 2: 0.00; 3: 80.4; 4: 77.30

---

Please provide measured inhibition at 0.25 µM for the entries that follow.
# Assay system: rCYP4F2 (Homo sapiens)
# Test summary: Inhibition of 20-HETE formation at 250 or 500 nM in rCYP4F2 incubations
# Type: biochemical
# Stated conditions: 250 nM compound; rCYP4F2 25 pmol/mL; read-out: rCYP4F2 % inh. @ 250 nM
One number for each entry, in %.

c1ccc(N2CCN(c3ccn[nH]3)CC2)cc1 = 3.9
c1ccc(OC2CCN(c3ccn[nH]3)CC2)cc1 = 0
c1ccc(C2CCN(c3cn[nH]c3)CC2)cc1 = 78.5

Next up:
The molecule `c1ccc(C2CCN(c3ccn[nH]3)CC2)cc1` showed inhibition at 0.25 µM equal to 53.6

---

# Test summary: Turbidometric solubility determination
# Format: physicochemical
# Stated conditions: PBS with 1% DMSO, aqueous buffer, kinetic from dmso stock, room temperature, OD620, read-out: Max Solub
Metric: solubility at 2 h (µM)
One number for each entry, in µM.

O=S1(=O)Cc2ccc(C3CCN(c4cn[nH]c4)CC3)cc2C1 = 187
Cl.Clc1ccc(CC2CCN(c3cn[nH]c3)CC2)cc1 = 74
Clc1ccc(C2CCN(c3cn[nH]c3)CC2)cc1 = 13.3

I would be grateful if you could provide solubility at 2 h for each of the following entries.
1. COc1cc(C2CCN(c3ccn[nH]3)CC2)ccc1F
2. O=S(=O)(Nc1ccc(C2CCN(c3cn[nH]c3)CC2)cc1)C1CC1
3. CC(Nc1ccc(C2CCN(c3cn[nH]c3)CC2)cc1)C(F)(F)F (stereo not shown)
4. O=C1CCCN1c1ccc(C2CCN(c3ccn[nH]3)CC2)cc1

Data returned:
1: 201; 2: 74; 3: 31; 4: 158

---

# System: 20-HETE formation (CYP4) in HLM
# Test summary: IC50 determination, 20-HETE formation in HLM
# Assay type: biochemical, human
# Stated conditions: HLM 300 μg/ml, AA 100 μM, 12 concentrations
Would you mind telling me the reported IC50 of each entry?
Numbers only, in µM.

Please review the entries below; each comes with its answer.
CC(=O)N(C)c1ccc(C2CCN(c3cn[nH]c3)CC2)cc1 [Compound 28] = 0.1
COc1ccc(C2CCN(c3ccn[nH]3)CC2)cc1 [Compound 19] = 0.14
O=C1CCCN1c1ccc(C2CCN(c3cn[nH]c3)CC2)cc1 [Compound 100] = 0.054

Look at each compound and report its IC50.
1. COc1ccc(C2CCN(c3cn[nH]c3)CC2)cn1 [Compound 32]
2. COc1cncc(C2CCN(c3cn[nH]c3)CC2)c1 [Compound 59]

Data returned:
1: 0.13; 2: 0.19

---

# Assay system: rCYP4F2 (Homo sapiens)
# Sequence (P78329 5-520): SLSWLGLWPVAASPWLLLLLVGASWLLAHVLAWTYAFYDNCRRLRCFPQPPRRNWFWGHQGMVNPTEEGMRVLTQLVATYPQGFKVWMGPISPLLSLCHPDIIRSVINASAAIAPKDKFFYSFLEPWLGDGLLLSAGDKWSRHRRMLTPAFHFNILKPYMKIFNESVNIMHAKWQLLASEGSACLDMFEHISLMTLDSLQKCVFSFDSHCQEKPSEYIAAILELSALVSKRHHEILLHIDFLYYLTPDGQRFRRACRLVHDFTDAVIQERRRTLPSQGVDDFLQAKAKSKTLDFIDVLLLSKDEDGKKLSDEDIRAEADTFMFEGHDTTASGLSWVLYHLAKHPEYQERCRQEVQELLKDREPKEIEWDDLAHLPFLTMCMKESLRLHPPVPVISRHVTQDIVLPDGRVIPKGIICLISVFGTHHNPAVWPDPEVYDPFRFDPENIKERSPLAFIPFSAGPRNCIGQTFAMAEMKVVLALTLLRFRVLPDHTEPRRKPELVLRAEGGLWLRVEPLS
# Test summary: Inhibition of 20-HETE formation at 250 or 500 nM in rCYP4F2 incubations
# Type: biochemical
# Stated conditions: 500 nM compound; rCYP4F2 25 pmol/mL; read-out: rCYP4F2 % inh. @ 500 nM
Field: inhibition at 0.5 µM. Provide a value for each of the compounds that follow.
Numbers only, in %.

// known answers, use as guide
FC(F)(F)c1ccnc(C2CCN(c3cn[nH]c3)CC2)c1 [Compound 86] = 49.4
COC(=O)c1ccc(C2CCN(c3ccn[nH]3)CC2)cc1 [Compound 11] = 66.5
O=S(=O)(c1ccccc1)C1CCN(c2ccn[nH]2)CC1 [Compound 41] = 0
COc1cncc(C2CCN(c3ccn[nH]3)CC2)c1 [Compound 60] = 38.4

List reported inhibition at 0.5 µM for each of these compounds:
1. COc1ccc(C2CCN(c3ccn[nH]3)CC2)cc1Cl [Compound 67]
2. FC(F)(F)c1cncc(C2CCN(c3ccn[nH]3)CC2)c1 [Compound 103]
3. COCc1ccc(C2CCN(c3ccn[nH]3)CC2)cc1 [Compound 25]
4. O=C1CCCN1Cc1ccc(C2CCN(c3cn[nH]c3)CC2)cc1 [Compound 83]

Data returned:
[90.9, 0, 67.8, 96.2]

Okay, here is my list. What is inhibition at 0.5 µM for each of these?
1. COc1ccc(C2CCN(c3ccn[nH]3)CC2)cc1 [Compound 19]
2. CC(=O)N(C)c1ccc(C2CCN(c3ccn[nH]3)CC2)cc1 [Compound 27]
3. O=S1(=O)CCc2cc(C3CCN(c4cn[nH]c4)CC3)ccc21 [Compound 102]
4. COc1ccc(C2CCN(c3cn[nH]c3)CC2)c(F)c1 [Compound 47]

Data returned:
1: 41.4; 2: 14; 3: 27.9; 4: 88

# return inhibition at 0.5 µM for each item in the list
1. CC(=O)N(C)c1ccc(C2CCN(c3ccn[nH]3)CC2)c(F)c1 [Compound 71]
2. CC(=O)Nc1ccc(C2CCN(c3cn[nH]c3)CC2)cc1 [Compound 30]
3. O=S(=O)(c1ccccc1)C1CCN(c2cn[nH]c2)CC1 [Compound 42]
4. c1ccc(CC2CCN(c3cn[nH]c3)CC2)cc1 [Compound 3, 4-Benzyl-1-(1H-pyrazol-4-yl)piperidine]
5. COc1cc(C2CCN(c3cn[nH]c3)CC2)ccn1 [Compound 15]
6. O=C1CCCN1c1ccc(C2CCN(c3cn[nH]c3)CC2)cc1 [Compound 100]
7. O=C(c1ccc(C2CCN(c3ccn[nH]3)CC2)c(F)c1)N1CCCC1 [Compound 82]
8. COc1ccc(C2CCN(c3ccn[nH]3)CC2)c(F)c1 [Compound 46]

Data returned:
1: 52.2; 2: 95; 3: 28; 4: 77; 5: 54; 6: 81.2; 7: 36; 8: 88

Hello, I would appreciate it if you could give inhibition at 0.5 µM for each entry below.
1. COC(=O)c1ccc(C2CCN(c3cn[nH]c3)CC2)cc1 [Compound 12]
2. CS(=O)(=O)Cc1ccc(C2CCN(c3cn[nH]c3)CC2)cc1 [Compound 89]
3. O=S(=O)(Nc1ccc(C2CCN(c3cn[nH]c3)CC2)cc1)C1CC1 [Compound 114]
4. COc1ccc(CC2CCN(c3ccn[nH]3)CC2)cc1 [Compound 79]
5. O=C1CCCN1c1ccc(CC2CCN(c3cn[nH]c3)CC2)cc1 [Compound 107]
6. CC(=O)N(C)c1ccc(C2CCN(c3cn[nH]c3)CC2)c(F)c1 [Compound 69]

Data returned:
63.7
72.9
87.4
62
82.3
57.9

Batch request: inhibition at 0.5 µM for each of the following compounds.
1. c1ccc(SC2CCN(c3ccn[nH]3)CC2)cc1 [Compound 39]
2. FC(F)(F)c1cncc(C2CCN(c3cn[nH]c3)CC2)c1 [Compound 95]
3. COc1ccc(SC2CCN(c3ccn[nH]3)CC2)cc1 [Compound 68]

Data returned:
[22.7, 26.3, 70.9]

Below is a list of compounds. For each, state its recorded inhibition at 0.5 µM.
1. c1cnc(C2CCN(c3ccn[nH]3)CC2)nc1 [Compound 9]
2. CC(Nc1ccc(C2CCN(c3cn[nH]c3)CC2)cc1)C(F)(F)F (stereo not drawn) [Compound 104]
3. O=S(=O)(c1ccc(C2CCN(c3cn[nH]c3)CC2)cc1)N1CCCC1 [Compound 85]
4. Clc1cccc(CC2CCN(c3ccn[nH]3)CC2)c1 [Compound 91]

Data returned:
1. 0
2. 78
3. 64
4. 39.1

Batch request: inhibition at 0.5 µM per item, same order as input.
1. O=[N+]([O-])c1ccc(C2CCN(c3ccn[nH]3)CC2)cc1 [Compound 112]
2. CCS(=O)(=O)c1ccc(C2CCN(c3ccn[nH]3)CC2)cc1 [Compound 58]
3. Fc1cccc(C2CCN(c3cn[nH]c3)CC2)c1 [Compound 49]
4. O=C(c1ccc(C2CCN(c3ccn[nH]3)CC2)cc1)N1CCCC1 [Compound 78]
5. CC(=O)Nc1ccc(C2CCN(c3ccn[nH]3)CC2)cc1 [Compound 29]

Data returned:
[41.3, 70.6, 90, 31, 55]

So, COc1cc(CC2CCN(c3ccn[nH]3)CC2)ccn1 [Compound 99] ? Its inhibition at 0.5 µM was 0
